Where do the numbers come from? From the Immune Epitope Database (IEDB).

target: HLA-B*40:01; experiment: IEDB peptide-MHC binding, purified MHC/competitive/fluorescence; filed as Kd, often an IC50 or EC50 that approximates it; bounds were set here for any values at or beyond the usual limits of such assays; settings: source organism: Bacillus mycoides KBAB4
MEASURE_NAME: pKd
The read-out pKd is expressed as -log10 of concentration in moles per litre.

Entry IEDKNLYMF needs its pKd filled in; supply it.
7.90

====

target: HLA-B*27:03; experiment: IEDB peptide-MHC binding, purified MHC/competitive/fluorescence; filed as Kd, often an IC50 or EC50 that approximates it; bounds were set here for any values at or beyond the usual limits of such assays; details: source organism: Hantavirus HPR/02-73
MEASURE_NAME: Kd

Supply measured Kd of GFAIPIILK in your reply.
≥ 20 µM

====

biological target: HLA-B*40:02; assay: IEDB peptide-MHC binding, purified MHC/competitive/radioactivity; filed as Kd, often an IC50 or EC50 that approximates it; bounds were set here for any values at or beyond the usual limits of such assays; settings: source organism: Mammarenavirus whitewaterense
MEASURE_NAME: Kd (nM)
Entry rule: numbers only, all in nM.

Let me know recorded Kd for SDHLISEIL , thanks.
83.1

====

target: HLA-A*02:02; assay: IEDB peptide-MHC binding, purified MHC/competitive/radioactivity; filed as Kd, often an IC50 or EC50 that approximates it; bounds were set here for any values at or beyond the usual limits of such assays; details: source organism: Vaccinia virus WR
Response field class: enum, chosen by comparing Kd against zone 1 (below 50 nM), zone 2 (50 nM to below 2000 nM), zone 3 (2000 nM or more)

As a guide, the following entries are already answered.
>>> df
     sequence  assigned_label
0   TVDFTDCRT          zone 3
1  KTNTKHCPKI          zone 3
2  VLEKKVCAIT          zone 2
3   WVMDTLNGI          zone 1
4  CTMERTNDLT          zone 3
5  KLYGYASLTT          zone 1
6   STISWMMKL          zone 2
7  RIVVALSSLV          zone 1
8  KLDDTGKKEL          zone 2
9  ITPTIEDDKI          zone 3

Please let me know in which category the item TLLNETAKV belongs.
zone 2

Hi, small favor: classify TQVKELGIA by its Kd when you get a moment.
zone 3

Which of the defined bands does the recorded Kd of ITVGMLIYSM sit within?
zone 1

Form: Item = IVQSVLRDI ; Class = ?
zone 3

Kindly state the category for this sequence: DTIESAKTKI
zone 3

Band assignment needed for VTDKTAYIGT please.
zone 3

Consider VISVIFYFI . To which Kd class does it belong?
zone 1

Any idea which band TIKESLLKET is in?
zone 2

Record AISYCRAFI — which class?
zone 1

# bin label for NLYKVYNGI
zone 2

Please let me know in which category the item NLILNFLDWI belongs.
zone 2

====

target: HLA-B*40:01; assay: IEDB peptide-MHC binding, purified MHC/competitive/radioactivity; filed as Kd, often an IC50 or EC50 that approximates it; bounds were set here for any values at or beyond the usual limits of such assays; details: source organism: Dengue virus 1 Nauru/West Pac/1974
MEASURE_NAME: Kd (nM)
Response body: numeric value in nM, unit text excluded.

In one line, give reported Kd of the entry AEPPFGESYI .
183

====

molecular target: HLA-A*23:01; assay: IEDB peptide-MHC binding, purified MHC/competitive/radioactivity; filed as Kd, often an IC50 or EC50 that approximates it; bounds were set here for any values at or beyond the usual limits of such assays; settings: source organism: Dengue virus 2 Jamaica/1409/1983
MEASURE_NAME: Kd (nM)
Write the answer as a number in nM, unit excluded.

In [3]: df
Out[3]:
    sequence  recorded_number
0  MWKQITPEL              170

// switching to the query sequence
State its Kd: VFGAIYGAAF
4.48

====

target: HLA-B*57:01; test: IEDB peptide-MHC binding, purified MHC/direct/fluorescence; filed as Kd, often an IC50 or EC50 that approximates it; bounds were set here for any values at or beyond the usual limits of such assays; conditions: source organism: Influenza A virus (A/swine/Korea/S190/2004(H9N2))
MEASURE_NAME: Kd

Return the recorded Kd value; entry: WIPKRNRSI
≥ 20 µM

====

biological target: HLA-A*69:01; test: IEDB peptide-MHC binding, purified MHC/direct/fluorescence; filed as Kd, often an IC50 or EC50 that approximates it; bounds were set here for any values at or beyond the usual limits of such assays; details: source organism: Influenza A virus (A/Hong Kong/507/97(H5N1))
pKd: −log10 of the molar value.
MEASURE_NAME: pKd

Provide measured pKd value, entry: KSCLPACVY
≤ 4.70

====

target: HLA-B*08:01; assay: IEDB peptide-MHC binding, purified MHC/competitive/radioactivity; filed as Kd, often an IC50 or EC50 that approximates it; bounds were set here for any values at or beyond the usual limits of such assays; details: source organism: Vaccinia virus WR
MEASURE_NAME: pKd
The scale used: pKd is minus the common logarithm of the concentration in molar units.

The examples below pair each entry with its known result.
>>> print(df.to_string())
    sequence  recorded_number
0  KMTRVFNKF             4.97
1  LLSRFFNMI             5.79
2  YPFFRKLVL             8.23
3  LIRPKILSM             9.26
4  IMRMRFKKG             7.20
5  FFINFFNLL             6.83
6  IILWFFNAM             5.28
7  FQSMHFTDM             7.07
8  DQLSKFRTL             8.13

// moving on: another record for pKd
Consider the sequence EALYYVHSL . State its measured pKd.
8.68

====

biological target: HLA-B*27:05; experiment: IEDB peptide-MHC binding, purified MHC/direct/fluorescence; filed as Kd, often an IC50 or EC50 that approximates it; bounds were set here for any values at or beyond the usual limits of such assays; conditions: source organism: Ectopseudomonas mendocina
pKd: −log10 of the molar value.
MEASURE_NAME: pKd

Give the measured pKd for FSDARLAKL
≤ 4.70

====

target: HLA-B*39:01; assay: IEDB peptide-MHC binding, purified MHC/competitive/fluorescence; filed as Kd, often an IC50 or EC50 that approximates it; bounds were set here for any values at or beyond the usual limits of such assays; settings: source organism: Orthohantavirus tulaense
pKd: −log10 of the molar value.
MEASURE_NAME: pKd

Lab note: record pKd of ILMARYMSK tested on HLA-B*39:01.
≤ 4.70

====

target: HLA-A*24:02; experiment: IEDB peptide-MHC binding, purified MHC/competitive/fluorescence; bounds were set here for any values at or beyond the usual limits of such assays; conditions: source organism: Vaccinia virus WR
MEASURE_NAME: pIC50
Note on pIC50: it is the negative log10 of concentration, concentration in mol/L.

Supply reported pIC50 belonging to this sequence: FYTRVLKPS
5.15

====

biological target: HLA-B*15:01; test: IEDB peptide-MHC binding, purified MHC/direct/fluorescence; filed as Kd, often an IC50 or EC50 that approximates it; bounds were set here for any values at or beyond the usual limits of such assays; conditions: source organism: Nitrococcus mobilis Nb-231
MEASURE_NAME: Kd (µM)
Write down the numeric answer in µM and omit the unit.

Tell me measured Kd for ISSGETRSF please.
3.6

====

target: HLA-A*24:03; assay: IEDB peptide-MHC binding, purified MHC/direct/fluorescence; filed as Kd, often an IC50 or EC50 that approximates it; bounds were set here for any values at or beyond the usual limits of such assays; conditions: source organism: Zaire ebolavirus
pKd: −log10 of the molar value.
MEASURE_NAME: pKd

In [3]: df
Out[3]:
    sequence  measure_name  result
0  VLSDLCNFL           pKd  ≤ 4.70

Write down pKd measured for item FLYDRLAST
≤ 4.70

====

biological target: HLA-B*18:01; assay: IEDB peptide-MHC binding, purified MHC/competitive/radioactivity; filed as Kd, often an IC50 or EC50 that approximates it; bounds were set here for any values at or beyond the usual limits of such assays; conditions: source organism: Mammarenavirus machupoense
MEASURE_NAME: Kd

Output Kd of EEVLDVCPLG
4.84 µM

====

molecular target: HLA-A*69:01; assay: IEDB peptide-MHC binding, purified MHC/competitive/fluorescence; filed as Kd, often an IC50 or EC50 that approximates it; bounds were set here for any values at or beyond the usual limits of such assays; settings: source organism: Hantavirus HPR/02-73
MEASURE_NAME: Kd

Recall and state the measured Kd for GFAIPIILK .
≥ 20 µM
